Please provide measured pIC50 for the entries that follow.
- System: L-540;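 note: growth inhibition of the human L-540 cell line, read out with a viability assay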
- run-description: cells
- Assay type: functional, cell-based
- conditions: Homo sapiens
- Description: SANGER: Inhibition of human L-540 cell growth in a cell viability assay.
pIC50: −log10 of the molar value.

{"columns": ["compound", "pIC50"],
 "data": [
  ["Cc1cc(Nc2cc(N3CCN(C)CC3)nc(Sc3ccc(NC(=O)C4CC4)cc3)n2)n[nH]1 [TOZASERTIB]", "< 5.70"],
  ["CC1=C2C[C@H]3[C@@H](CC=C4C[C@@H](O)CC[C@@]43C)[C@@H]2CC[C@]12O[C@@H]1C[C@H](C)CN[C@H]1[C@H]2C [CYCLOPAMINE]", "< 4.80"]
]}

Attention now shifts to the item below.
[Q] Give pIC50 for CN1CCN(CCOc2cc(OC3CCOCC3)c3c(Nc4c(Cl)ccc5c4OCO5)ncnc3c2)CC1 [SARACATINIB]
[A] < 5.70

====

- System: SNU-423
- run-description: cells
- Format: functional, cell-based, Homo sapiens
- conditions: Homo sapiens, SNU-423
- Description: SANGER: Inhibition of human SNU-423 cell growth in a cell viability assay.
Please provide measured IC50 for the entries that follow.

Worked cases, answers included:
{"columns": ["compound", "IC50"],
 "data": [
  ["CN(c1ncccc1CNc1nc(Nc2ccc3c(c2)CC(=O)N3)ncc1C(F)(F)F)S(C)(=O)=O", "> 2560 nM"],
  ["Cc1ccc(Nc2nccc(N(C)c3ccc4c(C)n(C)nc4c3)n2)cc1S(N)(=O)=O", "> 8000 nM"],
  ["CN(Cc1cnc2nc(N)nc(N)c2n1)c1ccc(C(=O)N[C@@H](CCC(=O)O)C(=O)O)cc1 [METHOTREXATE]", "> 200 nM"],
  ["C[C@]1(O)C[C@@H](c2nc(-c3ccc4ccc(-c5ccccc5)nc4c3)c3c(N)nccn32)C1", "> 2560 nM"]
]}

Attention now shifts to the item below.
[Q] Give IC50 for C=CCc1cccc(/C=N/NC(=O)CN2CCN(Cc3ccccc3)CC2)c1O
[A] > 2560 nM

====

- System: NCI-H2122;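 note: growth inhibition of the cells, read out with a cell viability assay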
- run-description: cells
- Type: functional, cell-based, Homo sapiens
- conditions: Homo sapiens, NCI-H2122
- Description: SANGER: Inhibition of human NCI-H2122 cell growth in a cell viability assay.
pIC50: −log10 of the molar value.
Please provide measured pIC50 for the entries that follow.

Worked cases, answers included:
{"columns": ["query-smiles", "pIC50"],
 "data": [
  ["CN(c1ncccc1CNc1nc(Nc2ccc3c(c2)CC(=O)N3)ncc1C(F)(F)F)S(C)(=O)=O", "< 5.59"],
  ["Cc1ccc(Nc2nccc(N(C)c3ccc4c(C)n(C)nc4c3)n2)cc1S(N)(=O)=O", "< 5.10"]
]}

Attention now shifts to the item below.
[Q] Give pIC50 for CCOc1nc(NC(=O)Cc2cc(OC)ccc2OC)cc(N)c1C#N
[A] < 5.00

====

- Tested on: CTB-1
- run-description: cells
- Assay type: functional, cell-based
- conditions: Homo sapiens
- Description: SANGER: Inhibition of human CTB-1 cell growth in a cell viability assay.
pIC50: −log10 of the molar value.
Please provide measured pIC50 for the entries that follow.

{"columns": ["query-smiles", "assay-system", "pIC50"],
 "data": [
  ["CN1CCN(CCOc2cc(OC3CCOCC3)c3c(Nc4c(Cl)ccc5c4OCO5)ncnc3c2)CC1", "CTB-1", "< 5.70"],
  ["CN(c1ncccc1CNc1nc(Nc2ccc3c(c2)CC(=O)N3)ncc1C(F)(F)F)S(C)(=O)=O", "CTB-1", "< 5.59"],
  ["CS(=O)(=O)CCNCc1ccc(-c2ccc3ncnc(Nc4ccc(OCc5cccc(F)c5)c(Cl)c4)c3c2)o1", "CTB-1", "< 5.70"]
]}

Attention now shifts to the item below.
[Q] Give pIC50 for Cc1cnc(-c2cnc(NCCNc3ccc(C#N)cn3)nc2-c2ccc(Cl)cc2Cl)[nH]1
[A] < 5.59

====

Please provide measured IC50 for the entries that follow.
- Test system: S-117
- run-description: cells
- Format: functional, cell-based, Homo sapiens
- conditions: Homo sapiens, S-117
- Description: SANGER: Inhibition of human S-117 cell growth in a cell viability assay.
One number for each entry, in nM.

{"columns": ["query-smiles", "IC50 [nM]"],
 "data": [
  ["CC(=O)O[C@@]12CO[C@@H]1C[C@H](O)[C@@]1(C)C(=O)[C@H](O)C3=C(C)[C@@H](OC(=O)[C@H](O)[C@@H](NC(=O)OC(C)(C)C)c4ccccc4)C[C@@](O)([C@@H](OC(=O)c4ccccc4)[C@H]21)C3(C)C", 4.86]
]}

Attention now shifts to the item below.
[Q] Enter measured IC50, system S-117, for the compound shown: Cc1cnc(-c2cnc(NCCNc3ccc(C#N)cn3)nc2-c2ccc(Cl)cc2Cl)[nH]1
[A] 921

====

- Tested on: KARPAS-45;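 note: inhibition of cell line growth, read out through a viability assay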
- run-description: cells
- Assay type: functional, cell-based
- conditions: Homo sapiens
- Description: SANGER: Inhibition of human KARPAS-45 cell growth in a cell viability assay.
measurement-name: pIC50
Give bare numbers, as −log10 of the molar value.

{"columns": ["compound", "result-value"],
 "data": [
  ["COc1cc(F)c(F)c(Nc2ccc(I)cc2F)c1NS(=O)(=O)C1(CC(O)CO)CC1 (centres undefined)", 5.94]
]}

[Q] Give pIC50 for C=CCNC1=C2C[C@@H](C)C[C@H](OC)[C@H](O)[C@@H](C)/C=C(\C)[C@H](OC(N)=O)[C@@H](OC)/C=C\C=C(/C)C(=O)NC(=CC1=O)C2=O
[A] 6.42

====

- Tested on: NCI-H187;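 note: growth inhibition of NCI-H187 cells, read out as cell viability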
- run-description: cells
- Type: functional, cell-based
- conditions: Homo sapiens
- Description: SANGER: Inhibition of human NCI-H187 cell growth in a cell viability assay.
Please provide measured IC50 for the entries that follow.

Worked cases, answers included:
{"columns": ["molecule", "IC50"],
 "data": [
  ["Cc1cnc(-c2cnc(NCCNc3ccc(C#N)cn3)nc2-c2ccc(Cl)cc2Cl)[nH]1", "> 2.56 µM"],
  ["Cn1cncc1[C@@](N)(c1ccc(Cl)cc1)c1ccc2c(c1)c(-c1cccc(Cl)c1)cc(=O)n2C", "> 16 µM"],
  ["C=C1C(=O)O[C@@H]2C3O[C@]3(C)CC/C=C(\\C)CC[C@@H]12 (stereo not given in full)", "> 5 µM"],
  ["CNC(=O)c1cc(Oc2ccc(NC(=O)Nc3ccc(Cl)c(C(F)(F)F)c3)cc2)ccn1", "> 4 µM"]
]}

Attention now shifts to the item below.
[Q] Give IC50 for CN(c1ncccc1CNc1nc(Nc2ccc3c(c2)CC(=O)N3)ncc1C(F)(F)F)S(C)(=O)=O
[A] > 2.56 µM

====

Please provide measured pIC50 for the entries that follow.
- Test system: SW756
- run-description: cells
- Format: functional, cell-based, Homo sapiens
- conditions: Homo sapiens, SW756
- Description: SANGER: Inhibition of human SW756 cell growth in a cell viability assay.
pIC50: −log10 of the molar value.

Provide pIC50 for all items below, preserving their order.
1. CN(c1ncccc1CNc1nc(Nc2ccc3c(c2)CC(=O)N3)ncc1C(F)(F)F)S(C)(=O)=O
2. O=C(c1cc(Cc2n[nH]c(=O)c3ccccc23)ccc1F)N1CCN(C(=O)C2CC2)CC1
3. Cc1ccc(Nc2nccc(N(C)c3ccc4c(C)n(C)nc4c3)n2)cc1S(N)(=O)=O

[A]
< 5.59
< 5.30
< 5.10

====

- System: MFH-ino
- run-description: cells
- Type: functional, cell-based
- conditions: Homo sapiens
- Description: SANGER: Inhibition of human MFH-ino cell growth in a cell viability assay.
pIC50: −log10 of the molar value.
measurement-name: pIC50

Worked cases, answers included:
{"columns": ["compound", "pIC50"],
 "data": [
  ["C=C1C(=O)O[C@@H]2C3O[C@]3(C)CC/C=C(\\C)CC[C@@H]12 (stereo partly drawn)", "< 5.30"],
  ["CC(=O)O[C@@]12CO[C@@H]1C[C@H](O)[C@@]1(C)C(=O)[C@H](O)C3=C(C)[C@@H](OC(=O)[C@H](O)[C@@H](NC(=O)OC(C)(C)C)c4ccccc4)C[C@@](O)([C@@H](OC(=O)c4ccccc4)[C@H]21)C3(C)C", "< 8.00"]
]}

[Q] Enter measured pIC50, system MFH-ino, for the compound shown: Cc1cnc(-c2cnc(NCCNc3ccc(C#N)cn3)nc2-c2ccc(Cl)cc2Cl)[nH]1;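 note: growth inhibition of human MFH-ino cells, read out by a cell viability assay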
[A] < 5.59

====

Please provide measured IC50 for the entries that follow.
- Tested on: THP-1;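 note: growth inhibition of THP-1 cells, read out via a cell viability assay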
- run-description: cells
- Assay type: functional, cell-based
- conditions: Homo sapiens
- Description: SANGER: Inhibition of human THP-1 cell growth in a cell viability assay.

Worked cases, answers included:
{"columns": ["compound", "IC50"],
 "data": [
  ["C[C@]1(O)C[C@@H](c2nc(-c3ccc4ccc(-c5ccccc5)nc4c3)c3c(N)nccn32)C1 [LINSITINIB]", "> 2.56 µM"],
  ["Cc1cnc(-c2cnc(NCCNc3ccc(C#N)cn3)nc2-c2ccc(Cl)cc2Cl)[nH]1 [LADUVIGLUSIB]", "> 2.56 µM"],
  ["CCC(=O)N1CCN(c2ccc(-n3c(=O)ccc4cnc5ccc(-c6cnc7ccccc7c6)cc5c43)cc2C(F)(F)F)CC1 [TORIN1]", "> 1.2 µM"]
]}

Provide IC50 for all items below, preserving their order.
1. Cc1cc(Nc2cc(N3CCN(C)CC3)nc(Sc3ccc(NC(=O)C4CC4)cc3)n2)n[nH]1 [TOZASERTIB]
2. COC(=O)CNC(=O)C(=O)OC
3. CC1=C2C[C@H]3[C@@H](CC=C4C[C@@H](O)CC[C@@]43C)[C@@H]2CC[C@]12O[C@@H]1C[C@H](C)CN[C@H]1[C@H]2C [CYCLOPAMINE]
4. C=C1C(=O)O[C@@H]2C3O[C@]3(C)CC/C=C(\C)CC[C@@H]12 (some centres not stated)

[A]
1: > 2 µM; 2: > 4000 µM; 3: > 16 µM; 4: > 5 µM
